Please go through the items and note down their pKi.
- target: T1, human insulin receptor isoform A (human, UniProt P06213-2 28-1370)
- T1 construct: whole, on cells; Tested as P1 membrane preparations of the over-expressing cells; also called hIR-A
- protocol: competitive radio-ligand binding, [125I]-insulin, membranes of 293EBNA cells over-expressing hIR-A
Here pKi is given on a logarithmic scale as minus log10 of the concentration in mol/L.

Returns the measured pKi for the input binder. Input: Example 3 fusion protein (SEQ ID NO:17) (Fc fusion) FVNQHLCGSHLVEALELVCGERGFHYGGGGGGSGGGGGIVEQCCTSICSLDQLENYCGGGGGQGGGGQGGGGQGGGGQGGPCPPCPAPEAAGGPSVFLFPPKPKDTLMISRTPEVTCVVVDVSQEDPEVQFNWYVDGVEVHNAKTKPREEQFNSTYRVVSVLTVLHQDWLNGKEYKCKVSNKGLPSSIEKTISKAKGQPREPQVYTLPPSQEEMTKNQVSLTCLVKGFYPSDIAVEWESNGQPENNYKTTPPVLDSDGSFFLYSRLTVDKSRWQEGNVFSCSVMHEALHNHYTQKSLSLSLG 8.00

Record request: pKi value, item Example 9 fusion protein (SEQ ID NO:23) (Fc fusion) FVNQHLCGSHLVEALELVCGERGFFYTEETGGGGGGGIVEQCCTSICSLYQLENYCGGGGGSGGGGSGGGGSGGGGSECPPCPAPPVAGPSVFLFPPKPKDTLMISRTPEVTCVVVDVSHEDPEVQFNWYVDGVEVHNAKTKPREEQFNSTFRVVSVLTVVHQDWLNGKEYKCKVSNKGLPAPIEKTISKTKGQPREPQVYTLPPSREEMTKNQVSLTCLVKGFYPSDIAVEWESNGQPENNYKTTPPMLDSDGSFFLYSKLTVDKSRWQQGNVFSCSVMHEALHNHYTQKSLSLSPG 8.43

Give the measured pKi of Example 5 fusion protein (SEQ ID NO:19) (Fc fusion) FVNQHLCGSHLVEALELVCGERGFHYGGGGGGSGGGGGIVEQCCTSTCSLDQLENYCGGGGGQGGGGQGGGGQGGGGQGGPCPPCPAPEAAGGPSVFLFPPKPKDTLMISRTPEVTCVVVDVSQEDPEVQFNWYVDGVEVHNAKTKPREEQFNSTYRVVSVLTVLHQDWLNGKEYKCKVSNKGLPSSIEKTISKAKGQPREPQVYTLPPSQEEMTKNQVSLTCLVKGFYPSDIAVEWESNGQPENNYKTTPPVLDSDGSFFLYSRLTVDKSRWQEGNVFSCSVMHEALHNHYTQKSLSLSLG . 7.45

May I ask what pKi has been recorded for Example 1 fusion protein (SEQ ID NO:12) (Fc fusion) FVNQHLCGSHLVEALELVCGERGFHYGGGGGGSGGGGGIVEQCCTSTCSLDQLENYCGGGGGQGGGGQGGGGQGGGGGECPPCPAPPVAGPSVFLFPPKPKDTLMISRTPEVTCVVVDVSHEDPEVQFNWYVDGVEVHNAKTKPREEQFNSTFRVVSVLTVVHQDWLNGKEYKCKVSNKGLPAPIEKTISKTKGQPREPQVYTLPPSREEMTKNQVSLTCLVKGFYPSDIAVEWESNGQPENNYKTTPPMLDSDGSFFLYSKLTVDKSRWQQGNVFSCSVMHEALHNHYTQKSLSLSPG ? 7.60
